- METHOD DESCRIPTION: West Nile virus CPE inhibition, SAR follow-up, cell-based, synthesized analogs (AID 2238)
- DETAILS: West Nile virus CPE inhibition in cells; series mostly up to 40 µM
The source made the active and inactive calls. How the calls were made is not given here.
MEASURED PARAMETER: outcome

In the examples that follow, each entry is paired with its recorded outcome.
Entry COc1ccc(-c2csc(NC(=O)c3ccc(Cl)cc3)n2)cc1 — recorded outcome = inactive

Kindly note the recorded outcome for COc1cccc(NC(=O)CSc2nc3ccccc3c(=O)n2-c2ccc(F)cc2)c1 , which is inactive

Measured outcome, COc1cccc(-n2c(SCC(=O)Nc3ccc4c(c3)CCC4)nc3ccccc3c2=O)c1 : inactive

Lab note: Nc1ccc2nc3n(c(=O)c2c1)CCC3 gave outcome of inactive

Continuing:
Record summary for O=C(Nc1nc(-c2ccc(Cl)cc2)cs1)c1cccc(Cl)c1 : reported outcome = inactive

O=[N+]([O-])c1ccc2c(c1)C(O)N1CCCC1=N2 (configuration not stated) has a reported outcome of inactive

Noted for COc1ccc(-c2csc(N(Cc3ccccc3)C(=O)c3ccccc3Cl)n2)cc1 : its outcome reads inactive

----------
- METHOD DESCRIPTION: West Nile virus CPE inhibition, SAR follow-up, cell-based, synthesized analogs (AID 2238)
- DETAILS: West Nile virus CPE inhibition in cells; series mostly up to 40 µM
Activity calls are given as the source filed them. No rule for the calls is given here.
MEASURED PARAMETER: outcome

Some solved cases for reference:
# compound O=C(Nc1nc(-c2ccccc2)cs1)c1ccccc1Cl ; its outcome = inactive

The recorded outcome for COc1cccc(C(NC(=O)c2ccccc2)c2ccc3cccnc3c2O)c1 (configuration not stated) is inactive

compound COc1ccccc1NC(=O)CSc1nc2ccccc2c(=O)n1-c1ccc(F)cc1 , outcome observed: inactive

Entry under test: O=C(Nc1nc(-c2ccc(Cl)cc2)cs1)c1ccccc1Cl . Its outcome was inactive

Others:
Note to self: outcome recorded for COc1ccc(-c2csc(N(C(=O)c3ccccc3Cl)C(C)C)n2)cc1 was inactive

----------
- METHOD DESCRIPTION: West Nile virus CPE inhibition, SAR follow-up, cell-based, synthesized analogs (AID 2238)
- DETAILS: West Nile virus CPE inhibition in cells; measured here: maximum CPE inhibition observed, at 40 µM, stronger effect = higher value unless noted
MEASURED PARAMETER: max CPE inhibition (%)
Response body: numeric value in %, unit text excluded.

Example compounds with recorded max CPE inhibition:
Record summary for O=C(CSc1nc2ccccc2c(=O)n1-c1ccc(F)cc1)Nc1ccc2c(c1)OCCO2 : reported max CPE inhibition = 2.5

Looking up COc1ccc(NC(=O)CSc2nc3ccccc3c(=O)n2-c2ccc(F)cc2)cc1 , I see its max CPE inhibition listed as 2.96

Others:
For this compound ( COc1cccc(NC(=O)CSc2nc3ccccc3c(=O)n2-c2ccc(F)cc2)c1 ), measured max CPE inhibition is 1.33

----------
- METHOD DESCRIPTION: West Nile virus CPE inhibition, SAR follow-up, cell-based, synthesized analogs (AID 2238)
- DETAILS: West Nile virus CPE inhibition in cells; measured here: maximum CPE inhibition observed, at 40 µM, stronger effect = higher value unless noted
MEASURED PARAMETER: max CPE inhibition (%)
// note: answer is a bare numeric in %

Take a look at these entries with their results.
Form field max CPE inhibition, entry O=c1c2c(F)cccc2nc2n1CCC2 : 1.51

# compound COc1ccc(-c2csc(NC(=O)c3cccc(Cl)c3)n2)cc1 ; its max CPE inhibition = 1.98

Entry COc1ccc(-c2csc(NC(=O)c3ccccc3Cl)n2)cc1 , max CPE inhibition reported as 1.74

The compound identified as Brc1ccc2c(c1)CN1CCCC1=N2 registered its max CPE inhibition at 54.9

Noted for O=C(Nc1nc(-c2ccc(Cl)cc2)cs1)c1ccc(I)cc1 : its max CPE inhibition reads 0.78

New cases:
The recorded max CPE inhibition for entry CC(=O)Nc1ccc2nc3n(c(=O)c2c1)CCC3 equals 2.33

Lookup result for O=C(CSc1nc2ccccc2c(=O)n1-c1ccc(F)cc1)Nc1ccc2c(c1)CCC2 ; measured max CPE inhibition: 65.2

Lab note: measured max CPE inhibition of O=C(Nc1nc(-c2ccc(Cl)cc2)cs1)c1ccccc1Cl was 0.4

Just so you know, measured max CPE inhibition for O=C(CSc1nc2ccccc2c(=O)n1-c1ccc(F)cc1)Nc1cccc2ccccc12 came out at 2.57

The compound listed as Cc1cccc2c(=O)n3c(nc12)CCC3 shows max CPE inhibition equal to 1.97

// max CPE inhibition lookup, compound = COc1ccc(-c2csc(N(Cc3ccccc3)C(=O)c3ccccc3Cl)n2)cc1 , result: 2.87

For this compound ( O=c1c2cc(Cl)cc(Cl)c2nc2n1CCC2 ), measured max CPE inhibition is 1.72

Consider Cc1ccc2nc3n(c(=O)c2c1)CCC3 . Its measured max CPE inhibition is 2.12
